organism: Rattus norvegicus; assay: Inhibition of rat intestine alpha-glucosidase using maltose as substrate after 10 mins by spectrometric analysis relative to acarbose; set-up: concentration or dose not given beside the values
Answer each item with its documented inhibition.
Note: a bare number is incomplete; add the unit.

| COMPOUND | READOUT NAME | REPORTED RESULT |
| --- | --- | --- |
| COc1ccc2cc(CCC(=O)CC(Nc3cc(C)on3)c3ccc([N+](=O)[O-])cc3)ccc2c1 (centres undefined) | inhibition | 24.6% |
| COc1ccc2cc(CCC(=O)CC(Nc3ccc(S(N)(=O)=O)cc3)c3ccc4c(c3)OCO4)ccc2c1 (centres undefined) | inhibition | -4.32% |
| COc1ccc2cc(CCC(=O)CC(Nc3cc(C)on3)c3ccc(Cl)cc3)ccc2c1 (centres undefined) | inhibition | 26.3% |
| COc1ccc2cc(CCC(=O)CC(Nc3ccc(S(N)(=O)=O)cc3)c3ccc(Cl)c(Cl)c3)ccc2c1 (centres undefined) | inhibition | 34.8% |
| COc1cccc(C(CC(=O)CCc2ccc3cc(OC)ccc3c2)Nc2ccc(S(=O)(=O)Nc3cc(C)on3)cc2)c1 (centres undefined) | inhibition | 12.7% |
| COc1ccc2cc(CCC(=O)CC(Nc3ccc(S(N)(=O)=O)cc3)c3ccco3)ccc2c1 (centres undefined) | inhibition | 46.8% |

// for each compound in input: emit inhibition
1. COc1cccc(C(CC(=O)CCc2ccc3cc(OC)ccc3c2)Nc2ccc(S(N)(=O)=O)cc2)c1 (centres undefined)
2. COc1ccc2cc(CCC(=O)CC(Nc3ccc(S(N)(=O)=O)cc3)c3ccc(Br)cc3)ccc2c1 (centres undefined)
3. COc1ccc2cc(CCC(=O)CC(Nc3ccc(S(N)(=O)=O)cc3)c3ccc([N+](=O)[O-])cc3)ccc2c1 (centres undefined)

1. 15.7%
2. 79.7%
3. 31.6%

====

species on record: Rattus norvegicus; assay: Inhibition of rat intestine alpha-glucosidase using maltose as substrate after 10 mins by spectrometric analysis relative to acarbose; design: concentration or dose not given beside the values
Assign TRUE whenever inhibition does not fall below 20%; assign FALSE whenever it does.

Use the examples below as a reference point.
| COMPOUND | ASSIGNED CATEGORY |
| --- | --- |
| COc1ccc2cc(CCC(=O)CC(Nc3cc(C)on3)c3cccc([N+](=O)[O-])c3)ccc2c1 (stereo not given) | TRUE |
| COc1ccc(C(CC(=O)CCc2ccc3cc(OC)ccc3c2)Nc2ccc(S(=O)(=O)Nc3cc(C)on3)cc2)cc1 (stereo not given) | TRUE |
| COc1ccc2cc(CCC(=O)CC(Nc3cc(C)on3)c3cccc(F)c3)ccc2c1 (stereo not given) | FALSE |
| COc1ccc2cc(CCC(=O)CC(Nc3ccc(S(N)(=O)=O)cc3)c3cccc(Cl)c3)ccc2c1 (stereo not given) | TRUE |
| COc1ccc2cc(CCC(=O)CC(Nc3cc(C)on3)c3ccc(C)cc3)ccc2c1 (stereo not given) | FALSE |

Would you say COc1ccc2cc(CCC(=O)CC(Nc3ccc(S(=O)(=O)Nc4cc(C)on4)cc3)c3ccc(O)cc3)ccc2c1 (stereo not given) shows inhibition at minimum 20%?
FALSE

Reported inhibition at or above 20%? COc1ccc2cc(CCC(=O)CC(Nc3cc(C)on3)c3cccc(Cl)c3)ccc2c1 (stereo not given)
TRUE

Decide: is the reported value of inhibition for COc1ccc2cc(CCC(=O)CC(Nc3ccc(S(N)(=O)=O)cc3)c3ccc(O)cc3)ccc2c1 (stereo not given) equal to or greater than 20%?
TRUE
